Test system: PPARg:RXRa (NR concentration 180 nM, RXRa partner concentration 90 nM)
protocol-description: PBM binding z-score (relative to random genomic background probes); higher = stronger binding; sequences stand for … in GC…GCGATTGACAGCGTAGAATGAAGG
# key: entry, value: PBM binding z-score
Lab note: record just the number, no unit beside it.

Known results for sequences:
sequence-text | assay-endpoint | readout-value
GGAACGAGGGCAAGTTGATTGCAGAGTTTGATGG | PBM binding z-score | 0.925
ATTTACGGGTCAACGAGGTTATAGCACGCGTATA | PBM binding z-score | 6.73
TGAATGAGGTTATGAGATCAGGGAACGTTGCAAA | PBM binding z-score | 1.64
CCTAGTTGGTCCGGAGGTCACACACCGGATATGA | PBM binding z-score | 2.4

Data request: So what does the record say about PBM binding z-score for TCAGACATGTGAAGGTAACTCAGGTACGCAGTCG ?
Data returned: 0.745

Data request: So what does the record say about PBM binding z-score for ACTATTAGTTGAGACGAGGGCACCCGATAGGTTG ?
Data returned: 0.813

Data request: So what does the record say about PBM binding z-score for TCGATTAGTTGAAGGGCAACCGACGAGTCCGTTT ?
Data returned: -0.114

Data request: So what does the record say about PBM binding z-score for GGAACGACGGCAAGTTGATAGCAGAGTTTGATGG ?
Data returned: 0.538

Data request: So what does the record say about PBM binding z-score for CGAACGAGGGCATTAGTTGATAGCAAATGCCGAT ?
Data returned: 0.83

Data request: So what does the record say about PBM binding z-score for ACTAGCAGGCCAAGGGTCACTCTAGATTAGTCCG ?
Data returned: 7.53

Data request: So what does the record say about PBM binding z-score for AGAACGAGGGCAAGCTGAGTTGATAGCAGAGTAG ?
Data returned: 1.32

Data request: So what does the record say about PBM binding z-score for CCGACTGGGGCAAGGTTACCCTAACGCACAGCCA ?
Data returned: 2.75
